Moraxella catarrhalis ATCC25238 measurements of MIC, listed per entry.
VALUE_TYPE: MIC (mg/L)

>>> print(df.to_string())
                                   molecule                    system_tested  readout_value
0  CC(=O)NC[C@H]1CN(c2ccc(N3C[C@@H]4[C@@H](C=O)[C@@H]4C3)c(F)c2)C(=O)O1  Moraxella catarrhalis ATCC25238              2
1  CC(=O)NC[C@H]1CN(c2ccc(N3C[C@@H]4[C@@H](/C=N/O)[C@@H]4C3)c(F)c2)C(=O)O1  Moraxella catarrhalis ATCC25238              4
2  CC(=O)NC[C@H]1CN(c2ccc(N3CCOCC3)c(F)c2)C(=O)O1 [Linezolid, reference compound]  Moraxella catarrhalis ATCC25238              4
3  CC(=O)NC[C@H]1CN(c2ccc(N3C[C@@H]4[C@@H](C#N)[C@@H]4C3)c(F)c2)C(=O)O1  Moraxella catarrhalis ATCC25238              2
